molecular target: hGLP-1R (Homo sapiens, UniProt P43220); assay: cell-based or functional assay
Sequence (P43220 24-463): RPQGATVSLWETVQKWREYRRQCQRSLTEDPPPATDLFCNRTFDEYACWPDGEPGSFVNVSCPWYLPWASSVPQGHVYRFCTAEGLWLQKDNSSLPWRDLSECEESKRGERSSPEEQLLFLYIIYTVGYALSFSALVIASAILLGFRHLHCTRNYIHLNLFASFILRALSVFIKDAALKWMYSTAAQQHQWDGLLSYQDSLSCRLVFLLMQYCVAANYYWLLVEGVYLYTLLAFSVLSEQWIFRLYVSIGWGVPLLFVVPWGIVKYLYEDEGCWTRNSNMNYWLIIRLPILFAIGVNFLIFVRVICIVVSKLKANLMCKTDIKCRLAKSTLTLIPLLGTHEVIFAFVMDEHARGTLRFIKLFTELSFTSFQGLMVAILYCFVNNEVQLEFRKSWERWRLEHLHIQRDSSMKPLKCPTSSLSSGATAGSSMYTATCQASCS
Non-standard residues stand in square brackets, D forms with d. No end group written: not given here. αMePhe(2-F) = C[C@](N)(Cc1ccccc1F)C(=O)O; Orn = NCCC[C@H](N)C(=O)O; Aib = CC(C)(N)C(=O)O
Observable: cAMP Rel EC50 (1% HSA) (nM)
Just the number please, in nM, no unit attached.

Here is how some binders turned out for cAMP Rel EC50 (1% HSA).
{"Binder": "YXQGTFTSDXXQXLDXKAQXQFIQXLIEXGPSSGAPPPSGGGE (not fully specified; synthetic construct; SITE 2: note = 2-Aminoisobutyric Acid; SITE 10: note = 3-(4-Pyridyl)-L-alanine; SITE 11: note = alpha-methyl-L-serine; SITE 13: note = alpha-methyl-leucine; SITE 16: note = L-ornithine; SITE 17: note = Lysine is chemically modified through conjugation of the epsilon-amino group) [Example 1137]", "Unit Of Measurement": "nM", "Result": 36.2}
{"Binder": "YXQGTXTSDXXIXLDXKAQXXFIEXLIEGGPSSGEPPPEGTGE (synthetic construct; SITE 2: note = 2-Aminoisobutyric Acid; SITE 6: note = alpha-methyl-2-fluoro-L-phenylalanine; SITE 10: note = 3-(4-Pyridyl)-L-alanine; SITE 11: note = alpha-methyl-L-serine; SITE 13: note = alpha-methyl-leucine; SITE 16: note = L-ornithine; SITE 17: note = Lysine is chemically mo) [Example 697]", "Unit Of Measurement": "nM", "Result": 18.2}
{"Binder": "YXQGTFTSDXSKXLDKKAQXAFIEXLIEXGPSSGAPPPSGS (Aib, 4Pal, αMeL, Me4Pal; lysine acylated C18 diacid; amide; synthetic construct; SITE 2: note = 2-Aminoisobutyric Acid; SITE 10: note = 3-(4-Pyridyl)-L-alanine; SITE 13: note = alpha-methyl-leucine; SITE 17: note = Lysine is chemically modified through conjugation of the epsilon-amino group of the Lysine side chain with (2-[2-(2-Amino-ethoxy)-ethoxy]-acetyl)) [Example 916]", "Unit Of Measurement": "nM", "Result": 166}

**Query** Can you look up the measured cAMP Rel EC50 (1% HSA) of YXQGTFTSDXSQXLDXKAQXAFIEXLIEXGPSSGEPPPSGSEE (AEEA-γGlu-C18 diacid on Lys; non-natural residues; amide; synthetic construct; SITE 2: note = 2-Aminoisobutyric Acid; SITE 10: note = 3-(4-Pyridyl)-L-alanine; SITE 13: note = alpha-methyl-leucine; SITE 16: note = L-ornithine; SITE 17: note = Lysine is chemically modified through conjugation of the epsilon-amino group of the Lysine side chain with (2-[2-(2-) [Example 1097] for me?
**Result** 141

**Query** What does the data say about its cAMP Rel EC50 (1% HSA)? Entry: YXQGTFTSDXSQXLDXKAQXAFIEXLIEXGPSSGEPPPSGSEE (not fully specified; Aib, 4Pal, Orn, Me4Pal, αMeY; lipidated Lys; C-terminal amide; synthetic construct; SITE 2: note = 2-Aminoisobutyric Acid; SITE 10: note = 3-(4-Pyridyl)-L-alanine; SITE 13: note = alpha-methyl-leucine; SITE 16: note = L-ornithine; SITE 17: note = Lysine is chemically modified through conjugation of the epsilon-amino group of the Lysine side chain with D-Glutami) [Example 1103]
**Result** 183

**Query** State the recorded cAMP Rel EC50 (1% HSA) for this entry: YXQGTFTSDXSQXLDXKAQXAFIEXLIAGGPSSGAPPPSGSEE (non-natural residues; C18 diacid-γ-Glu acyl on Lys; C-terminal amide; synthetic construct; SITE 2: note = 2-Aminoisobutyric Acid; SITE 10: note = 3-(4-Pyridyl)-L-alanine; SITE 13: note = alpha-methyl-leucine; SITE 16: note = L-ornithine; SITE 17: note = Lysine is chemically modified through conjugation of the epsilon-amino group of the Lysine side chain with D-Glutami) [Example 1074]
**Result** 101

**Query** Returns the measured cAMP Rel EC50 (1% HSA) for the input binder. Input: Y[Aib]QGT[αMePhe(2-F)]TSDYSILLDKAAQK[Orn]FIEYLIEGGPSSGEPPPSEG-NH2 (not fully specified (residue 20)) [Example 306]
**Result** 126
